test: Oral exposure and bioavailability in rat; type: in vivo; settings: in vivo, oral, suspension at 100 mg/kg, read-out: bioavailability
Structures can show the parent of a compound that is named as a salt.
MEASUREMENT NAME: bioavailability (%)
Return type: number; implicit unit %.

Which bioavailability value belongs to O=C(O)C[C@H]1CC[C@H](c2ccc(-c3ccc(Nc4nc5ccccc5o4)cn3)cc2)CC1 [meglumine salt] ?
3.8

###

assay: Solubility in buffers, biorelevant media and water; details: pH 6.5 (50 mM Phosphate)
MEASUREMENT NAME: Solubility (µg/mL)
I only need the number, in µg/mL, no unit after it.

[
  {
    "MOLECULE": "O=C(O)C[C@H]1CC[C@H](c2ccc(-c3ccc(Nc4nc5ccccc5o4)cn3)cc2)CC1 [Meglumine Form A]",
    "MEASUREMENT NAME": "Solubility",
    "MEASURED": 40
  }
]

Now for another entry.
Would you mind telling me what Solubility value was observed for O=C([O-])C[C@H]1CC[C@H](c2ccc(-c3ccc(Nc4nc5ccccc5o4)cn3)cc2)CC1.[Na+] [Sodium] ?
0.6
